# Study Target: human DGAT1 (Homo sapiens (Human))
# Sequence (O75907 whole entry): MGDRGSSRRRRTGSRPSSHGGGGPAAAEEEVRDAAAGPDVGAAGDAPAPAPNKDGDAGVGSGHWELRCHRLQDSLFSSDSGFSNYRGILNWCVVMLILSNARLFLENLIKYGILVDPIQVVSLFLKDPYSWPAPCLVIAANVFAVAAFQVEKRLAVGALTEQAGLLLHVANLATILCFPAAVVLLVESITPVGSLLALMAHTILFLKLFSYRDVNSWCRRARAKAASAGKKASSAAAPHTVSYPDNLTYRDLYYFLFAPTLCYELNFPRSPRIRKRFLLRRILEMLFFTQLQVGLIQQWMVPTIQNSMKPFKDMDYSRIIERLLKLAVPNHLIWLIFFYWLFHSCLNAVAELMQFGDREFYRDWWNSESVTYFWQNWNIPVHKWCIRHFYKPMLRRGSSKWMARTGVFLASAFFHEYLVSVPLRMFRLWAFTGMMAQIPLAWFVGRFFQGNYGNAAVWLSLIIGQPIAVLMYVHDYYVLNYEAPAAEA
# Test Description: Radiometric DGAT1 assay, human liver microsomes
# Type: biochemical
# Experimental Conditions: Source of human DGAT activity B = human liver microsomes
Value Kind: IC50

GET /values?readout=IC50&item= `O=C(O)C[C@H]1CC[C@H](c2ccc(-c3cn4cc(C(=O)Nc5cccc(OC(F)(F)F)c5)nc4s3)cc2)CC1`
< 10 nM

GET /values?readout=IC50&item= `O=C(O)C[C@H]1CC[C@H](c2ccc(-c3ccc4nc(C(=O)NCc5ccc(C(F)(F)F)cc5)cn4c3)cc2)CC1`
< 150 nM

GET /values?readout=IC50&item= `COc1ccccc1CNC(=O)c1cn2cc(-c3ccc([C@H]4CC[C@H](CC(=O)O)CC4)cc3)ccc2n1`
< 25 nM

GET /values?readout=IC50&item= `O=C(O)C[C@H]1CC[C@H](c2ccc(-c3ccc4nc(C(=O)Nc5cccc(OC(F)(F)F)c5)cn4c3)cc2)CC1`
< 100 nM

GET /values?readout=IC50&item= `O=C(O)C[C@H]1CC[C@H](c2ccc(-c3ccc4nc(C(=O)NCc5ccccc5)cn4c3)cc2)CC1`
< 50 nM

GET /values?readout=IC50&item= `O=C(O)C[C@H]1CC[C@H](c2ccc(-c3cn4cc(C(=O)NC5(c6cc(F)ccc6F)CC5)nc4s3)cc2)CC1`
< 10 nM

GET /values?readout=IC50&item= `CC(C)(C)c1ccc(CNC(=O)c2cn3cc(-c4ccc([C@H]5CC[C@H](CC(=O)O)CC5)cc4)sc3n2)cc1`
< 1 nM
